compounds and their reported GI50
System: COLO 205 colon
Assay: NCI tumour cell line growth inhibition, 48 h

I would be grateful if you could share the reported GI50 for O=C1C(Cl)=C(Nc2cccc(Cl)c2)C(=O)N1Cc1ccccc1 .
15.7 µM

Look at this compound and give its reported GI50. COc1cc2c3c(n(CCCN)c(=O)c2cc1OC)-c1ccccc1C3=O
0.472 µM

Form field: reported GI50 of COc1ccc(C2CC(c3cc(OC)c(OC)c(OC)c3)=NO2)cc1OCCCCOc1cc2c(cc1OC)C(=O)N1CCC[C@H]1C=N2 (some centres undefined)
1.96 µM

Quick one: GI50 for C/C(=N\NC(=O)c1sc(=S)n(C)c1N)c1cc2ccccc2o1 ?
17.1 µM

Given CCSCC1CC(O)(c2ccccc2)C(c2ccccc2)C(c2ccc(Cl)cc2)O1 (centres undefined) , state its recorded GI50.
1.53 µM

Record request: GI50 value, item CCOC(=O)c1c2c(c(O)c3ccccc3c(O)n(Cc3ccc(OC)cc3)c1C)C(=O)C=CC2=O
> 100 µM

Which GI50 value is on record for COc1ccc(OC)c(/C=N/NC(=O)Cc2csc3nc(-c4ccc(Br)cc4)cn23)c1 ?
35.7 µM

Quick one: GI50 for NCCNc1c2c(c(NCCN)c3c(CO)c[nH]c13)C(=O)c1ccccc1C2=O ?
8.38 µM

Item CC(=O)NCCc1c2c(c3nccc4c3c1Nc1ccccc1-4)OCS2 has what recorded GI50?
2.38 µM
